- measured_target: SARS-CoV-2 spike (S) protein (SARS-CoV-2), P0DTC2
- assay_context: remark: other sources report otherwise
measured_metric: kon (M⁻¹ s⁻¹)
Numbers only, in M⁻¹ s⁻¹.

kon for antibody 383 (antibody, V domains shown) VH: EVQLVESGGGLVQPGGSLRLSCAASGFTFSSYDMHWVRQATGKGLEWVSTIGTAGDTYYPGSVKGRFTISRENAKNSLYLQMNSLRAGDTAVYYCARVAYSSSFVYWYFDLWGRGTLVTVSS VL: DIQMTQSPSSLSASIGDRVTITCRASQSISSYLNWYQQKPGKAPNLLIYAASSLQSGVPSRFSGSGSGTDFTLTISSLQPEDFATYYCQQSYTTPLYTFGQGTKLEIK is 91800

These entries and their values trace back to patent US20210292393A1.
